Compiled literature Kd, tested on Retinoic acid receptor RXR-alpha (Homo sapiens).
test_readout: Kd

compound | result
CCC1(c2cc(C(C)C)cc(C(C)C)c2)CC1/C=C/C(C)=C/C(=O)O (single isomer, unassigned; (+)) | 0.05 nM
CCCC1(c2ccc3c(c2)C(C(C)(C)C)=CCC3(C)C)CC1/C=C/C(C)=C/C(=O)O (single isomer, unassigned; (+)) | 0.027 nM
CC(C)(C)c1cc(C(=O)Nc2ccc(C(=O)O)c(F)c2)c(O)c(C(C)(C)C)c1 | > 1000 nM
CCCC1(c2ccc3c(c2)C(C(C)C)=CCC3(C)C)CC1/C=C/C(C)=C/C(=O)O (single isomer, unassigned; (+)) | 0.01 nM
CC1(C)CCC(C)(C)c2cc(C(=S)Nc3ccc(C(=O)O)cc3)ccc21 | > 1000 nM
CC(C=CC1CC1(C)c1cc2c(cc1C)C(C)(C)CCC2(C)C)=CC(=O)O (stereo not shown) | 71 nM
CCOc1c(\C(CC)=C(F)/C=C/C(C)=C/C(=O)O)cc2c(c1Cl)C(C)(C)CC=C2C(C)C | 1 nM
